- ASSAY REMARKS: Cytotoxicity in HepG 2.2.15 cells (cell morphology under microscope after 8 days, Reed & Muench)
- Assay type: cell-based
- MEASUREMENT PARAMETERS: human, pathological changes after 8 days, read-out: TC50 (half-maximum toxic concentration)
READOUT LABEL: CC50 at 8 days (µM)
Write the number in µM without appending the unit.

INSERT INTO assay_data (compound, unit, experimental_result) VALUES
  ('COC(=O)C1=C(C)NC(c2cccs2)=NC1c1ccc(F)cc1Cl (centres unmarked)', 'µM', 1100);

[ask] Quickly give me recorded CC50 at 8 days for COC(=O)C1=C(C)NC(c2cccs2)=NC1c1ccccc1 (centres unmarked)
[reply] 105
